target: HTRA2, O43464; assay: holdup assay; parameters: key: below the threshold = too weak to quantify, mostly under pKd 3.1 to 4; details: plain residues with an end cap or a label only (N-terminal biotin on a linker: ado-ado)
Sequence (O43464 355-458): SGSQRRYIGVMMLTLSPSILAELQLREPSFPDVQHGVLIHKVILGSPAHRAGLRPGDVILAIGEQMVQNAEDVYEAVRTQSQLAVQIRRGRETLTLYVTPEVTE
experimentalEndpoint: pKd

Consider the reported pKd for these binders:
>  <binder>
DTKNYKQTSV [CRIPT, Q9P021]

>  <pKd>
below the threshold

$$$$
>  <binder>
ARESQKVSHV [FAM110B, Q8TC76]

>  <pKd>
below the threshold

$$$$
>  <binder>
LESTTVGTSV [KARS1, Q15046]

>  <pKd>
below the threshold

$$$$
>  <binder>
EIPAQSPTCV [FZD10, Q9ULW2]

>  <pKd>
3.76

$$$$
>  <binder>
PSVGSKKTVL [REELD1, A0A1B0GV85]

>  <pKd>
below the threshold

$$$$

# context switch: different binder, same pKd
Q: What does the data say about its pKd? Entry: EPQYQPGENL [SRC, P12931]
Result: 3.53

Provenance of the data: paper PMC9482650
